Value source: PubChem BioAssay (NCI)

# Test system: MOLT-4 leukemia
# assay-method-text: NCI tumour cell line growth inhibition, 48 h
measured-metric: TGI

Illustrative cases are given below, each with its answer.
[
  {
    "compound": "Cn1cnc([N+](=O)[O-])c1Sc1ncn[nH]1",
    "measured-metric": "TGI",
    "measured-result": "> 100 µM"
  },
  {
    "compound": "CC(C)(C)S(=O)OC12CC3CC(CC(C3)C1)C2 (stereo unspecified)",
    "measured-metric": "TGI",
    "measured-result": "> 100 µM"
  },
  {
    "compound": "O=C(N/N=C\\C(F)(F)F)c1ccncc1",
    "measured-metric": "TGI",
    "measured-result": "> 100 µM"
  },
  {
    "compound": "Cc1ccc(S(=O)(=O)c2c(N)n(CCN(C)C)c3nc4ccccc4nc23)cc1",
    "measured-metric": "TGI",
    "measured-result": "> 100 µM"
  },
  {
    "compound": "CC(=O)OCC(Br)C1(C)CCC(C(C)(C)Br)O1 (stereo unspecified)",
    "measured-metric": "TGI",
    "measured-result": "> 100 µM"
  },
  {
    "compound": "CCC(=O)C(C(C)/C=C/CCSc1ccccc1)C(O)CCCCCC(=O)OC (stereo unspecified)",
    "measured-metric": "TGI",
    "measured-result": "81 µM"
  },
  {
    "compound": "CC(CCCOC(c1ccccc1)(c1ccccc1)c1ccccc1)OC(=O)Nc1ccccc1 (stereo unspecified)",
    "measured-metric": "TGI",
    "measured-result": "24 µM"
  },
  {
    "compound": "CC(C)(C)C1CCC2c3c([nH]c4ccccc34)C3C(=O)N(c4ccc5c(c4)C(=O)c4ccccc4C5=O)C(=O)C3C2C1 (stereo unspecified)",
    "measured-metric": "TGI",
    "measured-result": "> 100 µM"
  }
]

Each compound below has a reported value. Please supply its TGI.
1. O=C(O)C1=C(C(=O)Nc2ccc(NC(=O)C3=C(C(=O)O)C4C=CC3C4)cc2)C2C=CC1C2
2. CCn1c2ccccc2c2cc(C(O)c3cccc4ncccc34)ccc21 (stereo unspecified)

1: > 100 µM; 2: > 100 µM

---

Exercise: for every item that follows, state its recorded GI50.
# Tested on: SF-295 CNS
# assay-method-text: NCI tumour cell line growth inhibition, 48 h

Illustrative cases are given below, each with its answer.
[
  {
    "compound": "CC1(C)OC(=O)C=C([O-])O1.CC1(C)OC(=O)C=C([O-])O1.CC[O-].CC[O-].[Ti+4]",
    "GI50": "> 100 µM"
  },
  {
    "compound": "COc1ccc(-c2nn(-c3cccc(NC(=O)c4ccc(N5CCOCC5)c(C(F)(F)F)c4)c3)cc2-c2ccncc2)cc1Cl",
    "GI50": "2.31 µM"
  },
  {
    "compound": "Cc1nc(Nc2nc3ccccc3o2)nc(-c2cccc([N+](=O)[O-])c2)c1C(=O)Nc1ccc(F)c(Cl)c1",
    "GI50": "1.65 µM"
  },
  {
    "compound": "Cc1ccc(-c2nc(N3CCCNCC3)c3oc(-c4ccc(C)cc4)nc3n2)cc1",
    "GI50": "1.86 µM"
  },
  {
    "compound": "CN(C)CCN1C(=O)c2cccc3cccc(c23)C1=O",
    "GI50": "11.1 µM"
  },
  {
    "compound": "CCN(CC)CCSCCCNc1c2ccc(Cl)cc2nc2ccc(OC)cc12",
    "GI50": "1.13 µM"
  },
  {
    "compound": "[Cl][Cd][Cl]",
    "GI50": "76.4 µM"
  },
  {
    "compound": "CN(/N=N/c1nc(OCc2ccccc2)c2[nH]cnc2n1)C(=O)Oc1ccc([N+](=O)[O-])cc1",
    "GI50": "11.1 µM"
  },
  {
    "compound": "COc1ccc(OC)c(Nc2nc(-c3c(C)nc4sccn34)cs2)c1",
    "GI50": "41.4 µM"
  },
  {
    "compound": "O=C1c2nc3n(c2C(=O)c2c1nc1n2CCC1)CCC3",
    "GI50": "6.72 µM"
  }
]

Each compound below has a reported value. Please supply its GI50.
1. C=CCCCc1ccc(C(O)CCCCCCCCCCCC)o1 (configuration not stated)
2. C=C1c2c(Cl)ccc(O)c2C(O)=C2C(=O)[C@]3(O)C(O)=C(C(N)=O)C(=O)[C@@H](N(C)C)[C@@H]3[C@@H](O)[C@H]12

1: 18.2 µM; 2: 1.19 µM

---

# System: SR leukemia
The reply should name one outcome from T (active), F (inactive)

[
  {
    "compound": "CCCNc1nc2ccccc2c2c1S(=O)(=O)c1ccc(Cl)cc1C2=O",
    "qualitative-label": "F"
  },
  {
    "compound": "Cc1nc(Nc2nc3ccccc3o2)nc(-c2cccc([N+](=O)[O-])c2)c1C(=O)Nc1ccc(F)c(Cl)c1",
    "qualitative-label": "F"
  },
  {
    "compound": "O=S(=O)(NCCNc1nccc(-c2c(-c3ccc(F)cc3)nc3sccn23)n1)c1ccccc1",
    "qualitative-label": "F"
  },
  {
    "compound": "N#Cc1cc(S(=O)(=O)Nc2nc3ccccc3s2)c(SCc2ccccc2)cc1Cl",
    "qualitative-label": "F"
  },
  {
    "compound": "Cc1cccc2c(N)c3ccccc3nc12",
    "qualitative-label": "F"
  }
]

Query: recorded result category for CCn1c2ccccc2c2cc(C(O)c3cccc4ncccc34)ccc21 (configuration not stated) in this test
T

Query: recorded result category for OCCN1CCN(CC/C=C2\c3ccccc3Sc3ccc(Cl)cc32)CC1 in this test
F

---

Each entry below carries its measured GI50, system: COLO 205 colon.

Illustrative cases are given below, each with its answer.
[
  {
    "compound": "Nc1nc(N)c2nc(CNc3ccc(C(=O)NC(CCCCNC(=O)c4ccccc4C(=O)O)C(=O)O)cc3)cnc2n1 (stereo not given)",
    "GI50": "537 nM"
  },
  {
    "compound": "ClCc1ccc(Cn2cnc3c(Cl)nc(Cl)nc32)cc1",
    "GI50": "3450 nM"
  },
  {
    "compound": "CC(C)COC(=O)c1ccc2[nH]c(O)c(C=Nc3ccc(S(N)(=O)=O)cc3)c2c1",
    "GI50": "532 nM"
  },
  {
    "compound": "COC(=O)[C@@H](C)C[C@H](Cc1ccccc1)NC(=O)c1csc([C@@H](C[C@H](C(C)C)N(C)C(=O)[C@H](C)NC(=O)[C@H]2CCCCN2C)OC(C)=O)n1",
    "GI50": "1120 nM"
  }
]

In the following, a different compound is considered.
Entry CN(/N=N/c1nc(OCc2ccccc2)c2[nH]cnc2n1)C(=O)Oc1ccc([N+](=O)[O-])cc1 ; GI50 = 10200 nM

---

# System: SNB-75 CNS
# assay-method-text: NCI tumour cell line growth inhibition, 48 h
measured-metric: log10 TGI (log10 of the value in µM)
Response schema: value (number) is log10 of TGI in units of µM.

Illustrative cases are given below, each with its answer.
[
  {
    "compound": "COc1ccc(C2=CC(c3ccc(OC)c(OC)c3)c3c(c4ccccc4oc3=O)O2)cc1OC (stereo not given)",
    "log10 TGI": 0.34
  },
  {
    "compound": "COc1ccc2nc(NC(=O)c3cccnc3Nc3cc(OC)c(OC)c(OC)c3)sc2c1",
    "log10 TGI": 1.11
  },
  {
    "compound": "CCOP(=O)(OCC)/C(C#N)=C/c1ccnc2ccccc12",
    "log10 TGI": 1.88
  }
]

Each compound below has a reported value. Please supply its log10 TGI.
1. CC[C@@H]1/C=C/C=C/C[C@H](C)[C@@H](O)[C@](C)(O)C(=O)[C@H](C)[C@@H](O)[C@H](C)C(=O)[C@H](C)[C@@H](O)[C@H](C)/C=C/C(=O)O[C@H]2[C@@H](C)[C@@H](CC1)O[C@@]1(CC[C@@H](C)[C@@H](CC(C)O)O1)[C@@H]2C (stereo not given in full)
2. COc1cc(/C=C/C(=O)c2cccnc2Nc2ccc(F)cc2)cc(OC)c1OC
3. CN(C)Cc1cc(C(C)(C)C)cc(C2CCCCC2)c1O
4. CC(CCCOC(c1ccccc1)(c1ccccc1)c1ccccc1)OC(=O)Nc1ccccc1 (stereo not given)
5. NC(=O)c1cccc([C@@H]2O[C@H](CO)[C@@H](O)[C@H]2O)c1
6. C[C@]12CC[C@H](O)CC1=CC[C@@H]1C2CC[C@]2(C)Nc3c(cnn3-c3ccc(F)cc3)CC12 (stereo not given in full)
7. C=C1c2c(Cl)ccc(O)c2C(O)=C2C(=O)[C@]3(O)C(O)=C(C(N)=O)C(=O)[C@@H](N(C)C)[C@@H]3[C@@H](O)[C@H]12
8. CC(=O)C1=CCC2c3[nH]c4ccccc4c3CCN2C1 (stereo not given)

1. 0.96
2. 0.93
3. 1.34
4. 1.45
5. 1.16
6. 1.22
7. 0.56
8. 1.95

Each compound below has a reported value. Please supply its log10 TGI.
1. Cc1cc(-c2nc3cccc(F)c3s2)ccc1N
2. c1ccc(CNc2nc(Nc3ccccc3)nc3ccccc23)cc1
3. C=CCCCc1ccc(C(O)CCCCCCCCCCCC)o1 (stereo not given)
4. O=C(CCN1CCOCC1)C(=Cc1ccccc1)C(=O)CCN1CCOCC1

1. 2.00
2. 0.81
3. 1.51
4. 1.47

Each compound below has a reported value. Please supply its log10 TGI.
1. Cc1ccc(S(=O)(=O)NNC2Oc3cc4c(cc3C(c3ccccc3O)C2C)OCO4)cc1 (stereo not given)
2. Cc1cccc2c(N)c3ccccc3nc12

1. 1.37
2. 0.62
